- Test system: HEK-293T
- assay method text: Incucyte cell viability with HEK293T; also: unitless GR value; below 1 slowed growth and below 0 cell loss
- Assay type: toxicity, cell-based
- test context: human, 18 h, 10 µM, compound concentration 10 uM, replicate number 1
Growth Rate less than 0.6 is true; Growth Rate greater than or equal to 0.6 is false.

| compound | label |
| --- | --- |
| CCc1ccc(-c2ncn(CC3(F)CCN(C)CC3)c2-c2ccnc3[nH]ccc23)nc1 | false |
| CN[C@@H](C)C(=O)N[C@H](C(=O)N1CCC[C@H]1C(=O)N[C@H]1c2ccccc2C[C@H]1OCC#CC#CCO[C@@H]1Cc2ccccc2[C@@H]1NC(=O)[C@@H]1CCCN1C(=O)[C@@H](NC(=O)[C@H](C)NC)C1CCCCC1)C1CCCCC1 | true |
| Cc1ccc(NC(=O)c2ccc3c(c2)OCCO3)cc1NC(=O)c1ccc2nc(OCCN3CCCC3)ccc2c1 | true |
| CC(C)c1nc2c(c3c1[C@@H](c1ccc(C(F)(F)F)cc1)OC31CCOCC1)[C@@H](O)CC(C)(C)C2.Cl | false |
| O=C1CCC(N2Cc3cc(CNC(=O)C(F)(F)c4ccc(Cl)cc4)ccc3C2=O)C(=O)N1 (stereo unspecified) | false |
| O=C(Nc1ccc(N2CCC(C(=O)N3CCOCC3)CC2)cc1)c1cnc(Oc2ccccc2)nc1 | false |

* * *

- Test system: HEK-293T
- assay method text: Incucyte cell viability with HEK293T; also: unitless GR value; below 1 slowed growth and below 0 cell loss
- Format: toxicity, cell-based
- test context: human, 24 h, 10 µM, compound concentration 10 uM, replicate number 2
The entries below are paired with their reported Growth Rate.

| compound | Growth Rate |
| --- | --- |
| Fc1cccc(-n2cnc3c(NCc4nc5ccc(F)c(F)c5[nH]4)nc(N4CCOCC4)nc32)c1 | -0.25 |
| CC(C)[C@H](C(=O)Nc1ccc(C(=O)NO)cc1)c1ccccc1 | 0.37 |
| NS(=O)(=O)c1cncc(-c2nc(NCc3ccccn3)c3c(-c4ccccc4)cccc3n2)c1 | 0.26 |
| COc1cccc(-c2c(C)c(Cc3c(F)cccc3C(F)(F)F)c3n(c2=O)[C@@H]([C@@H](N)c2ccccc2)CS3)c1F | 0.46 |
| CCOC(=O)N1CCC(CN(Cc2ccc(Cl)cc2)Cc2ccc([N+](=O)[O-])s2)C1 (stereo not drawn) | 0.35 |
| COc1ccc(S(=O)(=O)N2CCOCC2)cc1Nc1ccc2c(n1)N(C1CCN(C)CC1)[C@H](C)C(=O)N2C | 0.62 |
| CC(C)(C)c1ccc2c(c1)CC[C@H]2NC(=O)Nc1cccc2[nH]ncc12 | 0.48 |
| C[C@@H](CN1CC[C@@]2(C)c3cccc(O)c3C[C@@H]1C2(C)C)OCc1ccccc1.Cl | 0.96 |

* * *

- System: Fibroblast
- assay method text: Incucyte cell viability with human fibroblast; also: unitless GR value; below 1 slowed growth and below 0 cell loss
- Assay type: toxicity, cell-based
- test context: 18 h, 10 µM, compound concentration 10 uM, replicate number 2
Mark criterion met for reported Growth Rate of 0.7 or greater; mark criterion not met for anything smaller.

| compound | label |
| --- | --- |
| CCN1CCN(Cc2ccc(NC(=O)Nc3ccc(Oc4cc(NC)ncn4)cc3)cc2C(F)(F)F)CC1 [AST-487] | criterion met |
| c1cc(-c2cnn3cc(-c4ccc(N5CCNCC5)cc4)cnc23)c2cccnc2c1 | criterion not met |
| CC(C)n1cc(-c2ccc(N3CCN(C)CC3)c(NC(=O)c3ccc(-c4ccncc4)o3)c2)cn1 | criterion not met |
| CN1C(=O)c2c(nn(Cc3ccc(-c4cccc(F)n4)cc3)c2Nc2ccccc2)N2C1=N[C@@H]1CCC[C@@H]12.O=P(O)(O)O [LENRISPODUN PHOSPHATE] | criterion met |
| CCCCc1oc2ccccc2c1C(=O)c1cc(I)c(OCCN(CC)CC)c(I)c1.Cl [AMIODARONE HYDROCHLORIDE] | criterion not met |
| O=C1NC(c2cccc([N+](=O)[O-])c2)=CCN1c1ccccc1O [ICILLIN] | criterion met |
| N[C@H](C(=O)O)[C@@H]1CC(Cl)=NO1 [ACIVICIN] | criterion not met |
| CC1(C)C(=O)N([C@H]2CCc3c(O)cccc32)c2nc(Nc3cccc(CN4CCCC4)c3)ncc21 | criterion not met |
| C[C@@H](Oc1cc(-n2cnc3ccc(OC4CCN(C)CC4)cc32)sc1C(N)=O)c1ccccc1Cl [GSK-579289A] | criterion met |
